Hey, just so you know, these numbers are from ChEMBL document CHEMBL4145522.

method notes: MRT in C57BL/6J mouse at 10 mg/kg, iv by HPLC analysis
Type: ADME, organism-based
condition description: in vivo
assay endpoint: MRT

                                   compound  assay_endpoint  result
0  CCC(CC)(c1ccc(OCCCO)c(C)c1)c1ccc(OCC(O)C(C)(C)C)c(OCC(O)C(C)(C)C)c1 (stereo unspecified)             MRT  4.65 h

====

Measured inhibition at 0.5 µM values are reported for all entries that follow.
method notes: Antifibrotic activity against TGFbeta1 stimulated rat LTC-14 cells assessed as inhibition of collagen 1 synthesis at 0.5 uM after 24 hrs by ELISA relative to calcipotriol
Type: functional
condition description: LTC-14, 24 h
assay endpoint: inhibition at 0.5 µM (%)

                                   compound        assay_endpoint  result_number
0  C=C1/C(=C\C=C2/CCC[C@]3(C)[C@@H]([C@H](C)/C=C/[C@@H](O)C4CC4)CC[C@@H]23)C[C@@H](O)C[C@@H]1O  inhibition at 0.5 µM            100
1  CCC(CC)(c1ccc(OS(=O)(=O)c2ccc(C)cc2)c(C)c1)c1ccc(OCC(O)C(C)(C)C)c(OCC(O)C(C)(C)C)c1 (stereo not given)  inhibition at 0.5 µM            137
2  CCC(CC)(c1ccc(OS(=O)(=O)c2ccc([N+](=O)[O-])cc2)c(C)c1)c1ccc(OCC(O)C(C)(C)C)c(OCC(O)C(C)(C)C)c1 (stereo not given)  inhibition at 0.5 µM             82
3  CCC(CC)(c1ccc(OCCCO)c(C)c1)c1ccc(OCC(O)C(C)(C)C)c(OCC(O)C(C)(C)C)c1 (stereo not given)  inhibition at 0.5 µM            172
4  CCC(CC)(c1ccc(OCCCCO)c(C)c1)c1ccc(OCC(O)C(C)(C)C)c(OCC(O)C(C)(C)C)c1 (stereo not given)  inhibition at 0.5 µM            189
